Assay: physchem
QUANTITY: logD
Lab note: record the figure alone, no unit after it.

Lab book: logD of `Cn1cc(CCn2cnc(-c3cnn(C)c3)c2-c2ccc(C#N)cc2)cn1` noted as 1.05

###

Test: in vivo
Settings: mouse, po, 5 mg/kg, Terminal Half-Life, PO 5 mg/kg, individual animals 6, 7, 8
QUANTITY: half-life (min)
Note: unit min is implicit; provide only the numeric part.

Lab book: half-life of `Cn1cc(CCn2cnc(-c3cnn(C)c3)c2-c2ccc(C#N)cc2)cn1` noted as 45.4

###

Assay: in vivo
Conditions: mouse, iv, 5 mg/kg, Terminal Half-Life, IV 5 mg/kg, individual animals 2, 3, 4
QUANTITY: half-life
Dear colleague, please send the value followed by its unit.

Lab book: half-life of Cn1cc(CCn2cnc(-c3cnn(C)c3)c2-c2ccc(C#N)cc2)cn1 [Compound 13] noted as 50.9 min

Hey, just so you know, these numbers are from paper PMC4441536.
